- System: AICD
- Assay procedure: AICD by Western blot in SY5Y-APP695WT cells
- Assay type: cell-based, human
- Measurement parameters: AICD increase compared to chloroquine ([AICD]compound/[AICD]CQ) at 3 μM; mean of at least three experiments
AICD vs CQ (3 μM) strictly less than 3 = true (1). Otherwise false (0).

INPUT: Hi there! Is AICD vs CQ (3 μM) for CCN(CC)CCCC(C)Nc1ccnc2cc(Cl)ccc12 (centres unmarked) [CQ, chloroquine, reference compound] below 3, do you know?
OUTPUT: true (1)

INPUT: Hi there! Is AICD vs CQ (3 μM) for CN(C)CCCNc1ccc(-n2ccc(CN3CCCCC3)c2)cc1OCCN1CCCCC1 [Compound 56] below 3, do you know?
OUTPUT: true (1)

INPUT: Hi there! Is AICD vs CQ (3 μM) for CN(C)Cc1ccn(-c2ccc(NCCCN3CCCCC3)c(OCCN3CCCCC3)c2)c1 [Compound 51] below 3, do you know?
OUTPUT: true (1)

INPUT: Hi there! Is AICD vs CQ (3 μM) for CN(C)Cc1ccccc1-c1ccc(NCCN2CCCCC2)c(OCCN2CCCCC2)c1 [Compound 33] below 3, do you know?
OUTPUT: false (0)

INPUT: Hi there! Is AICD vs CQ (3 μM) for CN(C)Cc1ccccc1-c1ccc(NCCN2CCCCC2)c(OCCCCN2CCCCC2)c1 [Compound 35] below 3, do you know?
OUTPUT: false (0)

INPUT: Hi there! Is AICD vs CQ (3 μM) for CN(C)Cc1ccccc1-c1ccc(NCCCN2CCCCC2)cc1 [Compound 44] below 3, do you know?
OUTPUT: true (1)

INPUT: Hi there! Is AICD vs CQ (3 μM) for c1cc(CN2CCCCC2)cc(-c2ccc(NCCCN3CCCCC3)c(OCCN3CCCCC3)c2)c1 [Compound 26] below 3, do you know?
OUTPUT: true (1)
